Parameter melting point: see the listing below.

molecule | melting point
NS(=O)(=O)c1ccc(CCN(Cc2ccccc2)C(=O)c2ccc(-c3cssc3=S)cc2)cc1 | 139 to 140 °C
NS(=O)(=O)c1ccc(CCN(CCc2ccccc2)C(=O)c2ccc(-c3cssc3=S)cc2)cc1 | 228 to 229 °C
COc1ccc(CN(CCc2ccc(S(N)(=O)=O)cc2)C(=O)c2ccc(-c3cssc3=S)cc2)cc1OC | 183 to 184 °C
NS(=O)(=O)c1ccc(CCN(Cc2ccc(Br)cc2)C(=O)c2ccc(-c3cssc3=S)cc2)cc1 | 65 to 66 °C
N#Cc1ccc(CN(CCc2ccc(S(N)(=O)=O)cc2)C(=O)c2ccc(-c3cssc3=S)cc2)cc1 | 251 to 252 °C
COc1ccc(CN(CCc2ccc(S(N)(=O)=O)cc2)C(=O)c2ccc(-c3cssc3=S)cc2)cc1 | 151 to 152 °C
NS(=O)(=O)c1ccc(CCN(Cc2ccc(F)cc2)C(=O)c2ccc(-c3cssc3=S)cc2)cc1 | 158 to 159 °C
NS(=O)(=O)c1ccc(CCN(Cc2ccc([N+](=O)[O-])cc2)C(=O)c2ccc(-c3cssc3=S)cc2)cc1 | 223 to 224 °C
CN(C)c1ccc(CN(CCc2ccc(S(N)(=O)=O)cc2)C(=O)c2ccc(-c3cssc3=S)cc2)cc1 | 185 to 186 °C
NS(=O)(=O)c1ccc(CCN(Cc2ccc(Cl)cc2)C(=O)c2ccc(-c3cssc3=S)cc2)cc1 | 104 to 105 °C

---

Parameter SI CA I/IX: see the listing below.
experimental.system: UniProt Q16790
assay.method.text: Stopped-flow CO2 hydrase assay, hCA IX
measurement.context: selectivity index, ratio of KIs

molecule | SI CA I/IX
NS(=O)(=O)c1ccc(CCN(Cc2ccccc2)C(=O)c2ccc(-c3cssc3=S)cc2)cc1 [Compound 19] | 19.2
NS(=O)(=O)c1ccc(CCNCc2ccc(Cl)cc2)cc1 [Compound 6] | 2.0
NS(=O)(=O)c1ccc(CCNCc2ccc([N+](=O)[O-])cc2)cc1 [Compound 10] | 2.5
NS(=O)(=O)c1ccc(CCNCc2cccc3ccccc23)cc1 [Compound 15] | 5.8
CN(C)c1ccc(CN(CCc2ccc(S(N)(=O)=O)cc2)C(=O)c2ccc(-c3cssc3=S)cc2)cc1 [Compound 24] | 188
COc1ccc(CN(CCc2ccc(S(N)(=O)=O)cc2)C(=O)c2ccc(-c3cssc3=S)cc2)cc1 [Compound 27] | 44.0
NS(=O)(=O)c1ccc(CCN(Cc2cccc3ccccc23)C(=O)c2ccc(-c3cssc3=S)cc2)cc1 [Compound 30] | >641
N#CCCNCCc1ccc(S(N)(=O)=O)cc1 [Compound 18] | 1.0
NS(=O)(=O)c1ccc(CCN(Cc2csc3ccccc23)C(=O)c2ccc(-c3cssc3=S)cc2)cc1 [Compound 31] | >4167
COc1ccc(CN(CCc2ccc(S(N)(=O)=O)cc2)C(=O)c2ccc(-c3cssc3=S)cc2)cc1OC [Compound 28] | 47.9
NS(=O)(=O)c1ccc(CCN(Cc2ccc(Br)cc2)C(=O)c2ccc(-c3cssc3=S)cc2)cc1 [Compound 22] | 403
NS(=O)(=O)c1ccc(CCNCCc2ccccc2)cc1 [Compound 17] | 2.7

---

experimental.system: hCA XII (Homo sapiens, UniProt O43570)
Sequence (O43570 25-354): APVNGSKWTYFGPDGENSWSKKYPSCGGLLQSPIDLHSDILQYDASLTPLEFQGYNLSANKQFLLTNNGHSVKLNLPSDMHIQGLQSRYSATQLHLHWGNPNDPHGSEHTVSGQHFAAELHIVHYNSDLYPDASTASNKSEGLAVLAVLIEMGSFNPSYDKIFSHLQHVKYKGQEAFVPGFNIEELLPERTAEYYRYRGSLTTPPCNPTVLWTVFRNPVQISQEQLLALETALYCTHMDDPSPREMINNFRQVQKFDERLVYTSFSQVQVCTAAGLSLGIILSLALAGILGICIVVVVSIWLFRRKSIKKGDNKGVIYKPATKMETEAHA
assay.method.text: Stopped-flow CO2 hydrase assay, hCA XII
measurement.context: selectivity index, ratio of KIs
Rule: SI CA I/XII below 80 gives Condition met. Equal to or above 80 gives Condition not met.

compound | label.value
COc1ccc(CNCCc2ccc(S(N)(=O)=O)cc2)cc1OC [Compound 13] | Condition met
NS(=O)(=O)c1ccc(CCNCCc2ccccc2)cc1 [Compound 17] | Condition met
NS(=O)(=O)c1ccc(CCNCc2cccc3ccccc23)cc1 [Compound 15] | Condition met
NS(=O)(=O)c1ccc(CCN(CCc2ccccc2)C(=O)c2ccc(-c3cssc3=S)cc2)cc1 [Compound 32] | Condition not met
COc1ccc(CN(CCc2ccc(S(N)(=O)=O)cc2)C(=O)c2ccc(-c3cssc3=S)cc2)cc1OC [Compound 28] | Condition not met
NS(=O)(=O)c1ccc(CCNCc2ccc(Br)cc2)cc1 [Compound 7] | Condition met
COc1cc([N+](=O)[O-])ccc1CN(CCc1ccc(S(N)(=O)=O)cc1)C(=O)c1ccc(-c2cssc2=S)cc1 [Compound 26] | Condition not met
N#CCCN(CCc1ccc(S(N)(=O)=O)cc1)C(=O)c1ccc(-c2cssc2=S)cc1 [Compound 33] | Condition met
COc1ccc(CN(CCc2ccc(S(N)(=O)=O)cc2)C(=O)c2ccc(-c3cssc3=S)cc2)cc1 [Compound 27] | Condition met
NS(=O)(=O)c1ccc(CCN(Cc2csc3ccccc23)C(=O)c2ccc(-c3cssc3=S)cc2)cc1 [Compound 31] | Condition not met
N#CCCNCCc1ccc(S(N)(=O)=O)cc1 [Compound 18] | Condition met
NS(=O)(=O)c1ccc(CCN(Cc2ccc(Br)cc2)C(=O)c2ccc(-c3cssc3=S)cc2)cc1 [Compound 22] | Condition not met
NS(=O)(=O)c1ccc(CCN(Cc2ccc(Cl)cc2)C(=O)c2ccc(-c3cssc3=S)cc2)cc1 [Compound 21] | Condition not met
NS(=O)(=O)c1ccc(CCN(Cc2cccc3ccccc23)C(=O)c2ccc(-c3cssc3=S)cc2)cc1 [Compound 30] | Condition not met
NS(=O)(=O)c1ccc(CCNCc2csc3ccccc23)cc1 [Compound 16] | Condition met

---

experimental.system: hCA I (Homo sapiens, UniProt P00915)
Sequence (P00915 whole entry): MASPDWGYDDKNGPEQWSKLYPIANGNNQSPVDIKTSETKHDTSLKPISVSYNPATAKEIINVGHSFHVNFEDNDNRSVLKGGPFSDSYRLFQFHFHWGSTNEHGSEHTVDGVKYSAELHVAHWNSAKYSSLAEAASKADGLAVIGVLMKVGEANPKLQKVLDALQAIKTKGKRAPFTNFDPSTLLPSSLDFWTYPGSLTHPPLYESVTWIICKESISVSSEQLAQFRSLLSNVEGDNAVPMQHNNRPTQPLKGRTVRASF
assay.method.text: Stopped-flow CO2 hydrase assay, hCA I
Rule: Ki below 100 nM gives Met. Equal to or above 100 nM gives Not met.

molecule | label.value
NS(=O)(=O)c1ccc(CCNCc2csc3ccccc23)cc1 | Not met
N#Cc1ccc(CNCCc2ccc(S(N)(=O)=O)cc2)cc1 | Met
NS(=O)(=O)c1ccc(CCNCc2cccc3ccccc23)cc1 | Not met
NS(=O)(=O)c1ccc(CCNCc2ccc(Cl)cc2)cc1 | Not met
COc1cc([N+](=O)[O-])ccc1CNCCc1ccc(S(N)(=O)=O)cc1 | Not met
CSc1ccc(CNCCc2ccc(S(N)(=O)=O)cc2)cc1 | Not met
NS(=O)(=O)c1ccc(CCNCc2ccc(Br)cc2)cc1 | Not met
COc1ccc(CNCCc2ccc(S(N)(=O)=O)cc2)cc1OC | Met

---

experimental.system: hCA IX (Homo sapiens)
assay.method.text: Stopped-flow CO2 hydrase assay, hCA IX
measurement.type: Ki (µM)

molecule | value.observed
COc1ccc(CNCCc2ccc(S(N)(=O)=O)cc2)cc1OC | 0.103
NS(=O)(=O)c1ccc(CCNCc2ccc(Br)cc2)cc1 | 0.0864
CSc1ccc(CNCCc2ccc(S(N)(=O)=O)cc2)cc1 | 0.112
NS(=O)(=O)c1ccc(CCNCc2csc3ccccc23)cc1 | 0.0705
NS(=O)(=O)c1ccc(CCNCc2ccc(Cl)cc2)cc1 | 0.0674

---

experimental.system: UniProt Q16790
assay.method.text: Stopped-flow CO2 hydrase assay, hCA IX
measurement.context: selectivity index, ratio of KIs
Rule: SI CA I/IX below 5 gives True. Equal to or above 5 gives False.

compound | label.value
N#Cc1ccc(CN(CCc2ccc(S(N)(=O)=O)cc2)C(=O)c2ccc(-c3cssc3=S)cc2)cc1 [Compound 23] | False
NS(=O)(=O)c1ccc(CCN(Cc2ccc(F)cc2)C(=O)c2ccc(-c3cssc3=S)cc2)cc1 [Compound 20] | False
N#CCCN(CCc1ccc(S(N)(=O)=O)cc1)C(=O)c1ccc(-c2cssc2=S)cc1 [Compound 33] | False
NS(=O)(=O)c1ccc(CCNCc2csc3ccccc23)cc1 [Compound 16] | False
NS(=O)(=O)c1ccc(CCN(Cc2ccc(Cl)cc2)C(=O)c2ccc(-c3cssc3=S)cc2)cc1 [Compound 21] | False
NS(=O)(=O)c1ccc(CCN(CCc2ccccc2)C(=O)c2ccc(-c3cssc3=S)cc2)cc1 [Compound 32] | False
COc1ccc(CNCCc2ccc(S(N)(=O)=O)cc2)cc1OC [Compound 13] | True
NS(=O)(=O)c1ccc(CCNCc2ccc(F)cc2)cc1 [Compound 5] | True

---

experimental.system: hCA IV (Homo sapiens, UniProt P22748)
Sequence (P22748 19-312): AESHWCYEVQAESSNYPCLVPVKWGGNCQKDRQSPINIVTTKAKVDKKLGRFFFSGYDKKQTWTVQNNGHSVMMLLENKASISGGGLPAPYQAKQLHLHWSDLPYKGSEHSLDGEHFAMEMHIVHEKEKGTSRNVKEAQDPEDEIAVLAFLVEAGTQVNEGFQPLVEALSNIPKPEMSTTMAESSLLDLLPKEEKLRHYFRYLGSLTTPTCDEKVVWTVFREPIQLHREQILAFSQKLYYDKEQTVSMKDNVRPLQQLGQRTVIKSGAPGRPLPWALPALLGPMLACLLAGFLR
assay.method.text: Stopped-flow CO2 hydrase assay, hCA IV
measurement.context: selectivity index, ratio of KIs
Rule: SI CA II/IV below 0.1 gives condition met. Equal to or above 0.1 gives condition not met.

compound | experimental.system | label.value
NS(=O)(=O)c1ccc(CCN(Cc2ccc(F)cc2)C(=O)c2ccc(-c3cssc3=S)cc2)cc1 [Compound 20] | hCA IV (Homo sapiens, UniProt P22748) | condition met
N#CCCNCCc1ccc(S(N)(=O)=O)cc1 [Compound 18] | hCA IV (Homo sapiens, UniProt P22748) | condition met
NS(=O)(=O)c1ccc(CCNCc2ccc(Br)cc2)cc1 [Compound 7] | hCA IV (Homo sapiens, UniProt P22748) | condition met
NS(=O)(=O)c1ccc(CCNCc2ccc([N+](=O)[O-])cc2)cc1 [Compound 10] | hCA IV (Homo sapiens, UniProt P22748) | condition met
CSc1ccc(CN(CCc2ccc(S(N)(=O)=O)cc2)C(=O)c2ccc(-c3cssc3=S)cc2)cc1 [Compound 29] | hCA IV (Homo sapiens, UniProt P22748) | condition not met
COc1cc([N+](=O)[O-])ccc1CN(CCc1ccc(S(N)(=O)=O)cc1)C(=O)c1ccc(-c2cssc2=S)cc1 [Compound 26] | hCA IV (Homo sapiens, UniProt P22748) | condition not met
NS(=O)(=O)c1ccc(CCNCc2ccc(Cl)cc2)cc1 [Compound 6] | hCA IV (Homo sapiens, UniProt P22748) | condition met
N#CCCN(CCc1ccc(S(N)(=O)=O)cc1)C(=O)c1ccc(-c2cssc2=S)cc1 [Compound 33] | hCA IV (Homo sapiens, UniProt P22748) | condition not met
